Measured values drawn from ChEMBL document CHEMBL1145086 for this set.

Molecular target: Glutamate receptor ionotropic, AMPA (Rattus norvegicus, UniProt P19490+P19491+P19492+P19493)
Experiment: Binding selectivity towards Ionotropic glutamate receptor AMPA was determined by using [3H]- AMPA
pKi: −log10 of the molar value.
outcome-measure: pKi

Example molecules with recorded pKi:
molecule: CCOC(=O)c1cc2n(n1)C(C(=O)O)Nc1cc(Cl)c(-n3ccc[n+]3C=O)cc1-2 (stereo unspecified)
pKi: 5.85
--
molecule: O=C(O)c1nc2c(=O)[nH]c3cc(Cl)c(-n4cccn4)cc3n2n1
pKi: 6.07
--
molecule: CCOC(=O)c1nc2c(=O)[nH]c3cc(Cl)c(-n4ccc[n+]4C=O)cc3n2n1
pKi: 5.72
--
molecule: O=C(O)c1cc2n(n1)C(C(=O)O)Nc1cc(Cl)c(Cl)cc1-2 (stereo unspecified)
pKi: 5.62

[I] O=C(O)c1cc2n(n1)C(C(=O)O)Nc1cc(Cl)ccc1-2 (stereo unspecified)
[II] CCOC(=O)c1cc2n(n1)C(C(=O)O)Nc1cc(Cl)ccc1-2 (stereo unspecified)
Hey, which is lower on measured pKi, I or II ? Give the chosen item's label as your response.
II
(II: 4.14, I: 5.64)

----------
pKi: −log10 of the molar value.
pKi tested on Glutamate receptor ionotropic, NMDA 1 (Rattus norvegicus): recorded values
outcome-measure: pKi

molecule: O=C(O)c1cc2n(n1)C(C(=O)O)Nc1cc(Cl)c([N+](=O)[O-])cc1-2 (stereo unspecified)
outcome-measure: pKi
assay-result: 5.96

[I] CCOC(=O)c1nc2c(=O)[nH]c3cc(Cl)c(N)cc3n2n1
[II] CCOC(=O)c1cc2n(n1)C(C(=O)O)Nc1ccccc1-2 (stereo unspecified)
Hey, which is lower on measured pKi, I or II ? Give the chosen item's label as your response.
II
(II: 4.48, I: 5.32)

[P] CCOC(=O)c1nc2c(O)nc3cc(Cl)c([N+](=O)[O-])cc3n2n1
[Q] CCOC(=O)c1nc2c(O)nc3cc(Cl)c(-n4cccn4)cc3n2n1
Hey, which is lower on measured pKi, P or Q ? Give the chosen item's label as your response.
Q

[1] CCOC(=O)c1cc2n(n1)C(C(=O)O)Nc1cc(Cl)c([N+](=O)[O-])cc1-2 (stereo unspecified)
[2] CCOC(=O)c1cc2n(n1)C(C(=O)O)Nc1cc(Cl)c(-n3ccc[n+]3C=O)cc1-2 (stereo unspecified)
Please tell me which of the two, 1 or 2 , has the higher reported pKi value. Give the chosen item's label as your response.
1
(1: 4.97, 2: 4.24)

----------
Target: Glutamate receptor ionotropic, AMPA (Rattus norvegicus, UniProt P19490+P19491+P19492+P19493)
Assay: Binding selectivity towards Ionotropic glutamate receptor AMPA was determined by using [3H]- AMPA
pKi: −log10 of the molar value.
outcome-measure: pKi

Example molecules with recorded pKi:
molecule: O=C(O)c1cc2n(n1)C(C(=O)O)Nc1cc(Cl)c([N+](=O)[O-])cc1-2 (stereo not given)
pKi: 6.13

molecule: CCOC(=O)c1nc2c(O)nc3ccc(Cl)c(Cl)c3n2n1
pKi: 5.31

molecule: O=C(O)c1cc2n(n1)C(C(=O)O)Nc1cc(Cl)c(-n3ccnc3)cc1-2 (stereo not given)
pKi: 6.85

molecule: O=C[n+]1cccn1-c1cc2c(cc1Cl)[nH]c(=O)c1nc(C(=O)O)nn12
pKi: 6.28

molecule: O=C(O)c1cc2n(n1)C(C(=O)O)Nc1ccccc1-2 (stereo not given)
pKi: 4.91

[P] CCOC(=O)c1cc2n(n1)C(C(=O)O)Nc1cc(Cl)c([N+](=O)[O-])cc1-2 (stereo not given)
[Q] O=C(O)c1nc2c(=O)[nH]c3cc(Cl)c(-n4ccnc4)cc3n2n1
Please tell me which of the two, P or Q , has the higher reported pKi value. Give the chosen item's label as your response.
Q

----------
pKi tested on Glutamate receptor ionotropic, NMDA 1 (Rattus norvegicus, UniProt P35439): recorded values
// scale note: pKi = -log10(conc_M); give the bare number

Example compounds with recorded pKi:
compound: Nc1cc2c(cc1Cl)nc(O)c1nc(C(=O)O)nn12
pKi: 5.44
--
compound: O=C[n+]1cccn1-c1cc2c(cc1Cl)NC(C(=O)O)n1nc(C(=O)O)cc1-2 (centres undefined)
pKi: 5.09
--
compound: O=C(O)c1cc2n(n1)C(C(=O)O)Nc1cc(Cl)c(-n3ccnc3)cc1-2 (centres undefined)
pKi: 5.08

Return reported pKi for target or system Glutamate receptor ionotropic, NMDA 1 (Rattus norvegicus, UniProt P35439), item O=C[n+]1cccn1-c1cc2c(cc1Cl)[nH]c(=O)c1nc(C(=O)O)nn12 .
4.55

----------
Biological target: Glutamate receptor ionotropic, AMPA (Rattus norvegicus, UniProt P19490+P19491+P19492+P19493)
Experiment: Binding selectivity towards Ionotropic glutamate receptor AMPA was determined by using [3H]- AMPA
outcome-measure: Ki (µM)

[1] CCOC(=O)c1nc2c(O)nc3cc(Cl)c(-n4cccn4)cc3n2n1
[2] CCOC(=O)c1cc2n(n1)C(C(=O)O)Nc1ccccc1-2 (stereo not drawn)
Please tell me which of the two, 1 or 2 , has the higher reported Ki value. Give the chosen item's label as your response.
2
(2: 42 µM, 1: 18.4 µM)
